Molecular target: T1, Ep-CAM (UniProt P16422 24-265, limits assumed)
T1 construct: Amine coupled to a CM5 chip in the Biacore assays
T1 sequence (looked up): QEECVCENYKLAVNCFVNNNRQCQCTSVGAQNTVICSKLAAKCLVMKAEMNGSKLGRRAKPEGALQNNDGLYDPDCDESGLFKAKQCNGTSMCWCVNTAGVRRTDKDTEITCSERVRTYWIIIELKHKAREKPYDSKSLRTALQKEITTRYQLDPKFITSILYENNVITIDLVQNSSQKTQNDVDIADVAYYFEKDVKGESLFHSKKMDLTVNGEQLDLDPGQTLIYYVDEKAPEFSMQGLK
Test: Biacore, Fab periplasmic extract
Rule: Fulfilled for fold difference in affinity vs parental ING-1 not less than 0.05 fold, Not fulfilled for anything less.

1) ING-1 light chain P100Q (Fab, V domains shown, Fab, periplasmic extract) VH: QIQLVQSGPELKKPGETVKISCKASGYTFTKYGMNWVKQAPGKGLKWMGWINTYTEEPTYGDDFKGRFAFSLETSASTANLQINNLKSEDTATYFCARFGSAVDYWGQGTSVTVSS VL: DIVMTQAAFSNPVTLGTSGSISCRSSKSLLHSNGITYLYWYLQKPGQSPQLLIYQMSNLASGVPDRFSSSGSGTDFTLRISRVEAEDVGVYYCAQNLELQRTFGGGTKLEMKR | Not fulfilled
2) ING-1 light chain N33Y (Fab, V domains shown, Fab, periplasmic extract) VH: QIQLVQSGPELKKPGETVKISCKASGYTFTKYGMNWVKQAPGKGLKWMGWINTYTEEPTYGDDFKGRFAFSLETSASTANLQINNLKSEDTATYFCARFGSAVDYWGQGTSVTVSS VL: DIVMTQAAFSNPVTLGTSGSISCRSSKSLLHSYGITYLYWYLQKPGQSPQLLIYQMSNLASGVPDRFSSSGSGTDFTLRISRVEAEDVGVYYCAQNLELPRTFGGGTKLEMKR | Fulfilled
3) ING-1 light chain P100K (Fab, V domains shown, Fab, periplasmic extract) VH: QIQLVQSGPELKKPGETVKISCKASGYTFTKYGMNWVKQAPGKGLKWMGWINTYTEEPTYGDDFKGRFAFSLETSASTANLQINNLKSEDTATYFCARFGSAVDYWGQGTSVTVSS VL: DIVMTQAAFSNPVTLGTSGSISCRSSKSLLHSNGITYLYWYLQKPGQSPQLLIYQMSNLASGVPDRFSSSGSGTDFTLRISRVEAEDVGVYYCAQNLELKRTFGGGTKLEMKR | Not fulfilled
4) ING-1 light chain Y54S (Fab, V domains shown, Fab, periplasmic extract) VH: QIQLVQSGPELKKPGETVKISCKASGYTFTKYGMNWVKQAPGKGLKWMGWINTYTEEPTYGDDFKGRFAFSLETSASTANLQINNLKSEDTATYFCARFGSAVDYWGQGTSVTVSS VL: DIVMTQAAFSNPVTLGTSGSISCRSSKSLLHSNGITYLYWYLQKPGQSPQLLISQMSNLASGVPDRFSSSGSGTDFTLRISRVEAEDVGVYYCAQNLELPRTFGGGTKLEMKR | Fulfilled
5) ING-1 light chain L99D (Fab, V domains shown, Fab, periplasmic extract) VH: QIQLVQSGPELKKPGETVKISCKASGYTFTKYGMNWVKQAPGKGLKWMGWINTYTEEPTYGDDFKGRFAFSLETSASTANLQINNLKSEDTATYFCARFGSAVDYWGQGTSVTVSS VL: DIVMTQAAFSNPVTLGTSGSISCRSSKSLLHSNGITYLYWYLQKPGQSPQLLIYQMSNLASGVPDRFSSSGSGTDFTLRISRVEAEDVGVYYCAQNLEDPRTFGGGTKLEMKR | Not fulfilled
6) ING-1 light chain L99E (Fab, V domains shown, Fab, periplasmic extract) VH: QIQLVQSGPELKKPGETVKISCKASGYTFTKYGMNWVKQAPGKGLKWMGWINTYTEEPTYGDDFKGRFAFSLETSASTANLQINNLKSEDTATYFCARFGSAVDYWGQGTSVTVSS VL: DIVMTQAAFSNPVTLGTSGSISCRSSKSLLHSNGITYLYWYLQKPGQSPQLLIYQMSNLASGVPDRFSSSGSGTDFTLRISRVEAEDVGVYYCAQNLEEPRTFGGGTKLEMKR | Not fulfilled
7) ING-1 light chain Y37S (Fab, V domains shown, Fab, periplasmic extract) VH: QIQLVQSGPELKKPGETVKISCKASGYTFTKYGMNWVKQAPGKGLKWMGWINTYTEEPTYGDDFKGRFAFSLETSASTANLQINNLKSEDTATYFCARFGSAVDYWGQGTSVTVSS VL: DIVMTQAAFSNPVTLGTSGSISCRSSKSLLHSNGITSLYWYLQKPGQSPQLLIYQMSNLASGVPDRFSSSGSGTDFTLRISRVEAEDVGVYYCAQNLELPRTFGGGTKLEMKR | Fulfilled
8) ING-1 light chain R101K (Fab, V domains shown, Fab, periplasmic extract) VH: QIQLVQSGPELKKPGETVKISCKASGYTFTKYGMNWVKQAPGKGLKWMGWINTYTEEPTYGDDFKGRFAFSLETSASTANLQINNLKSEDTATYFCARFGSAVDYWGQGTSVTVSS VL: DIVMTQAAFSNPVTLGTSGSISCRSSKSLLHSNGITYLYWYLQKPGQSPQLLIYQMSNLASGVPDRFSSSGSGTDFTLRISRVEAEDVGVYYCAQNLELPKTFGGGTKLEMKR | Not fulfilled
